Recorded melting point values for a group of molecules are listed next.

// worked examples, melting point included
{"Molecule": "COC(=O)C1CN=CN(C)C1 (stereo not given)", "Measured Value": "93 to 95 °C"}
{"Molecule": "Cc1cc(C)cc(C(=O)N2CCC(Oc3nc4ccccc4n3Cc3ccc(F)cc3)CC2Cc2ccccc2)c1 (stereo not given)", "Measured Value": "154 °C"}

State the recorded melting point for this entry: Cc1cc2c(-c3cccc(-c4noc(=O)[nH]4)c3)c(CC(=O)Nc3ccc(F)cc3C(F)(F)F)c(=O)oc2cc1Cl
285 to 287 °C

State the recorded melting point for this entry: CCOC(=O)c1[nH]cc2c1C1C=CC2CC1 (stereo not given)
129 to 130 °C

State the recorded melting point for this entry: CC1(C)CC(=C(c2ccc(O)cc2)c2ccc(CCO)cc2)CC(C)(C)C1
159 to 160 °C

State the recorded melting point for this entry: CCOC(=O)/C=C/c1cn(Cc2ccc(OCc3ccccc3)cc2)cc1-c1ccccc1
111 to 112 °C

State the recorded melting point for this entry: CC(C)CN(CCCc1ccc(F)cc1)[C@H]1CC[C@H](c2ccc3[nH]c(=O)oc3c2)CC1
199 to 201 °C

State the recorded melting point for this entry: COc1ccc(C2=NN(C3CCCCCC3)C(=O)[C@H]3CC=CC[C@@H]23)cc1OC(F)F (relative stereo)
83 °C

State the recorded melting point for this entry: CC(C)(C)c1nn(-c2c(F)cc(Cl)c3nc(Cl)sc23)c(=O)o1
157 to 158 °C

====

Recorded melting point values for a group of molecules are listed next.

// worked examples, melting point included
{"Molecule": "NC(=O)Nc1c(C(=O)c2ccccc2)[nH]c2cc(Cl)ccc12", "Attribute Measured": "melting point", "Measured Value": "196 to 200 °C"}
{"Molecule": "N[C@@H](Cc1ccccc1)C(=O)NC(=O)OCc1ccccc1", "Attribute Measured": "melting point", "Measured Value": "158 to 160 °C"}
{"Molecule": "CC(=O)c1cc(C(F)(F)F)nn1-c1ccc(NC(=O)c2cccnc2F)cc1", "Attribute Measured": "melting point", "Measured Value": "188 to 189 °C"}
{"Molecule": "COc1ccc(S(=O)(=O)N(Cc2cccnc2)c2c(C(=O)O)cnc3c2c(C)nn3C)cc1", "Attribute Measured": "melting point", "Measured Value": "256 to 258 °C"}
{"Molecule": "COc1cc(C)c(NS(=O)(=O)N(C)C)cc1C(=O)NCC1CCCO1 (stereo not given)", "Attribute Measured": "melting point", "Measured Value": "130 to 131 °C"}

State the recorded melting point for this entry: CCCC[C@]1(CC)CS(=O)(=O)c2cc(OC)c(Br)cc2[C@@H](c2ccccc2)N1O
202 to 204 °C

State the recorded melting point for this entry: N#Cc1c[nH]c(C(N)=O)c1
253 to 256 °C

State the recorded melting point for this entry: C/C(NCC(C)C)=C(\C#N)C(N)=S
165 to 167 °C

State the recorded melting point for this entry: COc1cc(OC)nc(-c2ccc(-c3ccccc3S(=O)(=O)Nc3onc(C)c3C)cc2)n1
83 to 93 °C

State the recorded melting point for this entry: Cc1sc(S(N)(=O)=S)cc1C(C)O (stereo not given)
100 to 102 °C

====

Recorded melting point values for a group of compounds are listed next.

// worked examples, melting point included
{"Compound": "COc1nc(NN)c(C(F)(F)F)cc1Cl", "melting point": "140 to 142 °C"}
{"Compound": "O=C(O)COc1ccc(SCc2ccc(OCc3ccc(F)cc3F)cc2)c2c1CCC2", "melting point": "158 to 160 °C"}
{"Compound": "CCC(=O)NCC1CC12c1cc(OC)ccc1-c1ccc(OC)cc12 (stereo unspecified)", "melting point": "145 to 147 °C"}
{"Compound": "CCOC(=O)C1(C(=O)OCC)OC(=O)c2ncccc2C1(O)c1ccccc1 (stereo unspecified)", "melting point": "146 to 147 °C"}

State the recorded melting point for this entry: CCCCc1cnc(C2=NC(C)(C(C)C)C(=O)N2)c(C(=O)O)c1 (stereo unspecified)
152 to 154 °C

State the recorded melting point for this entry: CC(C)CCC(=O)C(C(=O)O)C1c2ccccc2C(=O)N1c1ccc2ccc(Cl)nc2n1 (stereo unspecified)
176 °C

State the recorded melting point for this entry: COC(=O)C1C(=O)Nc2cccc(C(F)(F)F)c2CC1c1ccccc1OC (stereo unspecified)
214 to 216 °C

====

Recorded melting point values for a group of compounds are listed next.

// worked examples, melting point included
{"Compound": "C[C@@H]1[C@H](c2ccccc2)[C@]1(NS(=O)(=O)c1ccc(-c2cc(C(C)(F)F)on2)s1)C(=O)O", "Measured Value": "177 to 178 °C"}
{"Compound": "N#Cc1cc(N=Nc2cccc(Cl)c2)ccc1N", "Measured Value": "255 °C"}
{"Compound": "Cn1c2ccc(Cl)cc2c2c3ccccc3c(OCCN3CCOCC3)nc21", "Measured Value": "140 to 142 °C"}
{"Compound": "NC(=O)C1CCc2c([nH]c3ccc(Cl)cc23)C1 (stereo unspecified)", "Measured Value": "203 to 204 °C"}
{"Compound": "CCCCCCCCCCCCCCCCOc1ccc(C(=O)O)o1", "Measured Value": "118 to 119 °C"}

As a next step, examine the compound that follows.
State the recorded melting point for this entry: O=C1N(C2CCCCC2)CC(CO)C1(c1ccccc1)c1ccccc1 (stereo unspecified)
148 to 150 °C

====

Recorded melting point values for a group of compounds are listed next.

// worked examples, melting point included
{"Compound": "CC(C)OC(=O)C(=C1SCCS1)c1ccc(F)cc1", "melting point": "106 to 107 °C"}
{"Compound": "N#Cc1c(N2CCCC2)nsc1N", "melting point": "198 °C"}
{"Compound": "CCOc1ccccc1C(=O)Nc1ccc(C(=O)N2Cc3cccn3Cc3ccccc32)cc1", "melting point": "160 to 176 °C"}
{"Compound": "COc1ccc(C(=O)Nc2c(Cl)cc(C(=O)O)cc2Cl)c2cc(C(C)C)oc12", "melting point": "279 °C"}
{"Compound": "Cc1ccc(OC(=O)CCC(=O)OOC(C)(C)C)cc1", "melting point": "72 to 77 °C"}

State the recorded melting point for this entry: COc1ccc(C=Cc2oc3ccc(C#N)cc3c2C(C)=O)cc1
190 to 191 °C

State the recorded melting point for this entry: Nc1ccc(C(=O)N2Cc3ccnn3Cc3ccccc32)c(Cl)c1
98 to 117 °C

State the recorded melting point for this entry: N#CCCNC(=O)c1n[nH]cc1NC(=O)C1CCCC1
180 to 181 °C

State the recorded melting point for this entry: CC(CCCCOCCCc1ccc(N2CCCC2)cc1)NCC(O)c1cc(O)cc(O)c1 (stereo not given)
57 to 60 °C

State the recorded melting point for this entry: NC(=O)c1c(F)cc(-c2ccc3nnn(Cc4ccc5ncccc5c4)c3n2)cc1F
272 to 275 °C

====

Attribute Measured: melting point

// worked examples, melting point included
{"Compound": "CC1(C)C=C(c2cccc(C(F)(F)F)c2)c2ccc(O)cc2O1", "Attribute Measured": "melting point", "Measured Value": "102 to 106 °C"}
{"Compound": "CCOC1C(NC(C)=O)CC(OC)OC1C (stereo unspecified)", "Attribute Measured": "melting point", "Measured Value": "199 to 200 °C"}
{"Compound": "CN1C(C(=O)Nc2ccccc2)=C(O)c2ccc3ccccc3c2S1(=O)=O", "Attribute Measured": "melting point", "Measured Value": "273 to 274 °C"}
{"Compound": "CN(C)c1ccc2cc(C(/C=C\\NCCO)=C(C#N)C#N)ccc2c1", "Attribute Measured": "melting point", "Measured Value": "168 to 170 °C"}
{"Compound": "N#Cc1ccc(-n2c(=O)oc3ccc(-c4ccc(F)cc4F)cc3c2=O)cc1", "Attribute Measured": "melting point", "Measured Value": "203 to 204 °C"}
{"Compound": "CC(C)CCCC(C)C1CCC2C3CC=C4CCCC(O)C4(C)C3CCC12C (stereo unspecified)", "Attribute Measured": "melting point", "Measured Value": "102 to 103 °C"}

State the recorded melting point for this entry: Cc1cc2ccccc2cc1C1CC(=O)C=C(O)C1 (stereo unspecified)
210 °C

State the recorded melting point for this entry: Oc1c(CCl)cc(F)cc1CCl
70 °C

State the recorded melting point for this entry: CCn1ncc(CC(=O)O)c1OCCCc1cn(-c2ccc(C(F)(F)F)cn2)nc1C(C)C
120 to 121 °C

State the recorded melting point for this entry: CCCCCC(=O)COS(=O)(=O)c1ccc(OCC)cc1
35 to 35.5 °C

State the recorded melting point for this entry: COC(=O)CCCCNC(=O)C(CS)Cc1ccccc1 (stereo unspecified)
39 to 41 °C

====

Recorded melting point values for a group of molecules are listed next.

// worked examples, melting point included
{"Molecule": "CCNC(=O)c1sc(N2CCN(Cc3ccc(OC(F)(F)F)cc3)C2=O)nc1C", "melting point": "139 to 140 °C"}
{"Molecule": "CC(=O)OC1CC2CCC3C(CCC4(C)C(O)C(N5CCCC5)CC34)C2(C)CC1N1CCOCC1 (stereo not given)", "melting point": "112 to 118 °C"}
{"Molecule": "O=C(Nc1ccc(F)cc1)NC1CCN(C(=O)c2cccnc2)CC1", "melting point": "118 to 122 °C"}

State the recorded melting point for this entry: NC(=S)c1[nH]c2ccc(Cl)cc2c1S(=O)(=O)c1ccccc1
207 to 210 °C

State the recorded melting point for this entry: O=C(O)c1n[nH]c(=O)c2cc(F)ccc12
222 to 224 °C
